# measured.target: HLA-B*57:01
# assay.remarks: IEDB peptide-MHC binding, purified MHC/competitive/fluorescence; filed as Kd, often an IC50 or EC50 that approximates it; bounds were set here for any values at or beyond the usual limits of such assays
# condition.label: source organism: Human immunodeficiency virus 1
reported.endpoint: pKd
Numbers only, as −log10 of the molar value.

Item KSLFNTVATLY has what recorded pKd? 6.63

---

# measured.target: HLA-B*44:03
# assay.remarks: IEDB peptide-MHC binding, purified MHC/competitive/radioactivity; filed as Kd, often an IC50 or EC50 that approximates it; bounds were set here for any values at or beyond the usual limits of such assays
# condition.label: source organism: SARS coronavirus Tor2
Exercise: for every item that follows, state its recorded pKd.
Answers are plain numbers, as −log10 of the molar value.

VDYGVRFFFY
6.10
IEELFYSYAT
6.69
SAFFGMSRIG
5.06
QELGHEDLMA
5.63
REIGFIVPGL
8.37
DEWSVATFY
7.98
GEILLLEWL
8.82
SEEVVENPTI
5.98

Record pKd per entry; entries follow.
1. NELTLIDFYL
2. GECPKFVFPL
3. QELGKYEQYI

1: 7.29; 2: 6.17; 3: 6.73
